- assaySummary: Single-dose pharmacokinetic study in mice
- Format: in vivo
- runParameters: male C57BL/6 mice; IV: 1 mg/kg PO: 5 mg/kg
experimentalReadout: Maximum concentration (nM)

>  <molecule>
CC1(c2ccc(-c3[nH]c4cc(F)cc5c4c3CONC5=O)cc2)CCCN1 (stereo not shown)

>  <unitAbbrev>
nM

>  <testResult>
240

$$$$

A = CNCc1ccc(-c2[nH]c3cc(F)cc4c3c2CCNC4=O)cc1 [Rucaparib, reference compound]
B = O=C1NOCc2c(-c3ccc(C4CCCN4)cc3)[nH]c3cc(F)cc1c23 (single isomer, unassigned)
C = CC1(c2ccc(-c3[nH]c4cc(F)cc5c4c3CONC5=O)cc2F)CCCN1 (single isomer, unassigned)
Ask: # rank_down: sort by Maximum concentration, max first Reply: labels, ordered per the request.
Reply: B, C, A

Source listed as patent US20220144850A1.
